# reported Ki; entries follow
Tested On: JAK2 (Homo sapiens (Human), UniProt O60674)
Sequence (O60674 whole entry): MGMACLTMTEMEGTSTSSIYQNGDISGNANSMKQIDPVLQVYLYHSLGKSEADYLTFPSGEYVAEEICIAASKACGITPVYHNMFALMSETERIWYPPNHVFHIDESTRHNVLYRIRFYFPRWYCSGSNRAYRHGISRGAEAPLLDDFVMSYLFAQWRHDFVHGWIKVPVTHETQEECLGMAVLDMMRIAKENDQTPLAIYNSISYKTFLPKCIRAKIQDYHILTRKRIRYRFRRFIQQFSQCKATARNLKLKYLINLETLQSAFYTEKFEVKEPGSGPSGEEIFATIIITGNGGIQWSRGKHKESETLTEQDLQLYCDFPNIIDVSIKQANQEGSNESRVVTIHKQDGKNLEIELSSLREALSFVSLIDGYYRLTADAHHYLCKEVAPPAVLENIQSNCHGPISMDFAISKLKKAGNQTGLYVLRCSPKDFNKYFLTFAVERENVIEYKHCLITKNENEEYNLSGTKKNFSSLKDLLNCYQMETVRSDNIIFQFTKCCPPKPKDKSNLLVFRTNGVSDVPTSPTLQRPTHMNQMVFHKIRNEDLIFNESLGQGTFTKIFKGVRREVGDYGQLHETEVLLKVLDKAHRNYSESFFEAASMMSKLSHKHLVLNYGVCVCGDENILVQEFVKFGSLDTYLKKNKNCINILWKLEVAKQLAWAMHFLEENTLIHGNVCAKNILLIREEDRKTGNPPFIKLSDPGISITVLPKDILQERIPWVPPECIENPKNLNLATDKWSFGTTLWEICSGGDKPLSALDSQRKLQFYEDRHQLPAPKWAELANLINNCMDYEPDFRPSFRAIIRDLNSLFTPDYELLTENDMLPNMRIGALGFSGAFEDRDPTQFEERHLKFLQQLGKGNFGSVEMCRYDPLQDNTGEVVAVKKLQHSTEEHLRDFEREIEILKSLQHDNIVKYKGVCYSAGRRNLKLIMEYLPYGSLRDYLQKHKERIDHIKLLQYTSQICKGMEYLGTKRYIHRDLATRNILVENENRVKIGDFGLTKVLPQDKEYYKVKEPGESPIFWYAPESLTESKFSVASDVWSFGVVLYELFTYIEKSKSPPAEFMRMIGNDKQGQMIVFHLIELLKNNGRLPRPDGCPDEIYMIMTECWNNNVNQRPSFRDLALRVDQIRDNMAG
Assay Notes: JAK2 activity inhibition assay (radioactive kinase assay / Caliper assay)
Assay type: biochemical
Test Conditions: read-out: JAK2 Ki

Sample records with Ki:
Data request: Fill in reported Ki for this entry: `C[C@@H](C(=O)O)c1ccc(Nc2nc(-c3c(F)cccc3F)nc3c2C(=O)NC3)cc1`
Data returned: 100 to 1000 nM

Data request: Fill in reported Ki for this entry: `O=C(NCCO)c1ccc(Nc2cc(-c3c(F)cccc3F)nc3c2C(=O)NC3)nc1`
Data returned: 10 to 100 nM

Data request: Fill in reported Ki for this entry: O=C1NCc2nc(-c3c(F)cccc3F)nc(Nc3ccc(CC(=O)N4CCOCC4C(=O)O)cc3)c21 (centres unmarked)
Data returned: 100 to 1000 nM

Data request: Fill in reported Ki for this entry: `CC(=O)Nc1ccc(Nc2cc(-c3c(F)cccc3F)nc3c2C(=O)NC3)nc1`
Data returned: 10 to 100 nM

Data request: Fill in reported Ki for this entry: COCCC1(c2ccc(Nc3nc(-c4c(F)cccc4F)nc4c3C(=O)NC4)cc2)CCNC1=O (centres unmarked)
Data returned: 10 to 100 nM

---
Data request: Fill in reported Ki for this entry: `CCNC(=O)C(C)(C)c1ccc(Nc2nc(-c3c(F)cccc3F)nc3c2C(=O)NC3)cc1`
Data returned: 100 to 1000 nM

Data request: Fill in reported Ki for this entry: `CN1CCN(C)[C@](C)(c2ccc(Nc3nc(-c4c(F)cccc4F)nc4c3C(=O)NC4)cc2)C1=O`
Data returned: 10 to 100 nM

Data request: Fill in reported Ki for this entry: O=C1NCc2nc(-c3c(F)cccc3Cl)nc(Nc3ccc(C4CCNC4=O)cc3)c21 (centres unmarked)
Data returned: 100 to 1000 nM
